# Tested on: Mast/stem cell growth factor receptor Kit (Homo sapiens), P10721 [T670I]
# Sequence (P10721 whole entry T670I): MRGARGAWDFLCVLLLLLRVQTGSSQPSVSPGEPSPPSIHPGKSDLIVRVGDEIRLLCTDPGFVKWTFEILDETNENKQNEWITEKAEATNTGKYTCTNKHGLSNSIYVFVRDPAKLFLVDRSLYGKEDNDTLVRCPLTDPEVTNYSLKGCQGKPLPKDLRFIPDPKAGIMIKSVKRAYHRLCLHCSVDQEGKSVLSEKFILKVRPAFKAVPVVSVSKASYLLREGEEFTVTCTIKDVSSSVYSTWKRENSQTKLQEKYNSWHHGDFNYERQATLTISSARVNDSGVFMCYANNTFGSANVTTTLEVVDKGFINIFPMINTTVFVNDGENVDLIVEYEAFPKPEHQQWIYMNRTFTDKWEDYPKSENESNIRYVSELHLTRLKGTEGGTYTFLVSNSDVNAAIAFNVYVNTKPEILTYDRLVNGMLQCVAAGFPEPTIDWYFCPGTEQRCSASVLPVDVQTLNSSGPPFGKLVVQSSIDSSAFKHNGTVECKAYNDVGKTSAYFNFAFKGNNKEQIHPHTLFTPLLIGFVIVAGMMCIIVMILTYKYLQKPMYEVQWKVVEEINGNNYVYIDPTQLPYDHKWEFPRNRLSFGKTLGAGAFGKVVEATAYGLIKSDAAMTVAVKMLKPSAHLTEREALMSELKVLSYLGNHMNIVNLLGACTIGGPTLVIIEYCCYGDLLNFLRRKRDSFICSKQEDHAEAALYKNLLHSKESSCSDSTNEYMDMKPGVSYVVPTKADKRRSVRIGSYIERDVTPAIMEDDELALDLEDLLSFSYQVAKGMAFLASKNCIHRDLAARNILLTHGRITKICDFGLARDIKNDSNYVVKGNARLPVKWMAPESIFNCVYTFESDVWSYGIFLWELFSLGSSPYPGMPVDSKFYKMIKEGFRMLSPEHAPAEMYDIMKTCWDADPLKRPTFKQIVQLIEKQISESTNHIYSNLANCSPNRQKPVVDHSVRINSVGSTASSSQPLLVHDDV
# conditions: at 1 µM
// reported inhibition per item

smiles repr | inhibition / %
Cc1ccc(C(=O)NC(C)C)cc1-c1ccc(C(=O)NCC2CC2)cc1 | -1.47
FC(F)(F)c1cccc(Nc2nccc(-c3cnn4nc(-c5ccccc5)ccc34)n2)c1 | 5.77
CN(c1ccc(NC(=O)Nc2c(Cl)cccc2Cl)cc1)c1ccnc(Nc2cccc(CS(C)(=O)=O)c2)n1 | 35.9
COc1cc(Nc2ncc(-c3ccccc3)o2)cc(OC)c1OC | 94.8
COc1ccc(C2=C(N3CCc4ccccc43)C(=O)NC2=O)cc1 | 5.55
COc1ccc2cc(-c3c(-c4ccncc4)nc(-c4ccc(S(C)(=O)=O)cc4C)n3C)ccc2c1 | 4.5
CN(C)CCOc1ccc(-c2cc(-c3ccc4c(c3)CCC4=NO)c(-c3ccncc3)o2)cc1 | 0.36
Fc1ccc(-c2ncn(C3CCNCC3)c2-c2ccnc(Oc3ccc4c(c3)OCO4)n2)cc1 | 3.64
